# target: TbCet1 (Trypanosoma brucei brucei)
# Sequence (Q582T2 1-253): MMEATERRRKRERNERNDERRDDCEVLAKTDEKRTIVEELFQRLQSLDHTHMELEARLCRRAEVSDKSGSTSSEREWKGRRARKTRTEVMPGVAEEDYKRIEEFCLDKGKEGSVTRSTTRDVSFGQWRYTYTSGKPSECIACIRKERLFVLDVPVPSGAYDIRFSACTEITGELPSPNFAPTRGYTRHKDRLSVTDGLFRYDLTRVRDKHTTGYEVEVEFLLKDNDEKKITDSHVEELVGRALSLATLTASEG
# assay_overview: TLC assay for 32Pi release from [γ-32P]ATP, TbCet1
# assay_conditions: IC50 TbCet1 by 32P assay, 2.2 nM TbCet1, 0.2 mM ATP, 2 mM Mn2+, 10 min 37°C
attribute_measured: log10 of IC50 (log10 of the value in µM)
Could you please treat all values as log10 of IC50 in µM?

Examples with answers:
compound | target | attribute_measured | experimental_result
Oc1cc(O)c2c(c1)O[C@H](c1ccc(O)c(O)c1)[C@H](O)C2 [Compound 4C, epicatechin] | TbCet1 (Trypanosoma brucei brucei) | log10 of IC50 | -0.60
O=C(O[C@@H]1C[C@@](O)(C(=O)O)C[C@@H](O)[C@@H]1O)c1cc(O)c(O)c(O)c1 [Compound 1O, 5-galloylquinic acid] | TbCet1 (Trypanosoma brucei brucei) | log10 of IC50 | 2.10

Data request: Provide one value: measured log10 of IC50 of O=C(/C=C/c1ccc(O)c(O)c1)O[C@H](Cc1ccc(O)c(O)c1)C(=O)O [Compound 3A, rosmarinic acid]
Data returned: -0.92

Data request: Provide one value: measured log10 of IC50 of O=C(OC1[C@H](OC(=O)c2ccccc2)CC(OC(=O)c2ccccc2)(C(=O)O)C[C@H]1OC(=O)c1ccccc1)c1ccccc1 (stereo partly drawn) [Compound 1K]
Data returned: 0.76

Data request: Provide one value: measured log10 of IC50 of CC(=O)O[C@@]12C[C@@H](OC(=O)/C=C/c3ccc(O)c(O)c3)[C@@H](OC(=O)/C=C/c3ccc(O)c(O)c3)[C@@H](C1)OC2=O [Compound 6C, 1-acetyl,4,5-dicaffeoylquinide]
Data returned: 0.56

Data request: Provide one value: measured log10 of IC50 of O=C(/C=C/c1ccc(O)c(O)c1)O[C@@H]1C[C@](OC(=O)/C=C/c2ccc(O)c(O)c2)(C(=O)O)C[C@@H](OC(=O)/C=C/c2ccc(O)c(O)c2)[C@H]1O [Compound 1E, 1,3,5-tricaffeoylquinic acid]
Data returned: -0.72
